The following compounds are shown together with reported GI50 values.
# Tested on: LoVo
# method-notes: SRB colorimetric cell growth inhibition assay, LoVo
# Assay type: cell-based
# condition-notes: Homo sapiens, LoVo; GI=growth inhibition; read-out: GI50 LOVO

compound | system-under-test | GI50
COc1cc(-c2c3c4cc(OC)c(OC(=O)[C@H](C)NC(=O)OC(C)(C)C)cc4oc(=O)c3n3ccc4cc(OC(=O)[C@H](C)NC(=O)OC(C)(C)C)c(OC)cc4c23)ccc1OC(=O)[C@H](C)NC(=O)OC(C)(C)C [Compound 41] | LoVo | 3310 nM
COc1cc2ccn3c(c(-c4ccc(OC(=O)[C@@H](NC(=O)OC(C)(C)C)C(C)C)c(OC)c4)c4c5cc(OC)c(OC(=O)[C@@H](NC(=O)OC(C)(C)C)C(C)C)cc5oc(=O)c43)c2cc1OC [Compound 15] | LoVo | 1680 nM
COc1cc(-c2c3n(c4c(=O)oc5cc(OC(=O)[C@@H]6CCCN6)c(OC)cc5c24)CCc2cc(OC(=O)[C@@H]4CCCN4)c(OC)cc2-3)ccc1OC(=O)[C@@H]1CCCN1 [Compound 134] | LoVo | 2050 nM
COc1cc2c(cc1O)CCn1c-2c(Br)c2c3cc(OC)c(O)cc3oc(=O)c21 [Compound 188] | LoVo | 4500 nM
COc1cc(-c2c3c4cc(OC)c(OC(=O)[C@@H](N)CC(C)C)cc4oc(=O)c3n3ccc4c(OC(=O)[C@@H](N)CC(C)C)c(OC)c(OC)cc4c23)ccc1OC(=O)[C@@H](N)CC(C)C [Compound 45] | LoVo | 771 nM
COc1cc(-c2c3n(c4c(=O)oc5cc(N)c(OC)cc5c24)CCc2cc(OC)c(OC)cc2-3)ccc1N [Compound 57] | LoVo | 717 nM
COc1cc(-c2c3n(c4c(=O)oc5cc(OC(=O)[C@@H](N)CO)c(OC)cc5c24)CCc2c-3cc(OC)c(OC)c2OC(=O)[C@@H](N)CO)ccc1OC(=O)[C@@H](N)CO [Compound 59] | LoVo | 1130 nM
COc1cc(-c2c3c4cc(OC)c(OC(=O)C[C@H](N)C(C)C)cc4oc(=O)c3n3ccc4cc(OC(=O)C[C@H](N)C(C)C)c(OC)cc4c23)ccc1OC(=O)C[C@H](N)C(C)C [Compound 206] | LoVo | 167 nM
CC[C@H](C)[C@H](N)C(=O)Oc1ccc(-c2c3c4cc(OC)c(OC(=O)[C@@H](N)[C@@H](C)CC)cc4oc(=O)c3n3ccc4cc(OC(=O)[C@@H](N)[C@@H](C)CC)c(OC)cc4c23)cc1OC [Compound 209] | LoVo | 119 nM
COc1cc(-c2c3c4cc(OC)c(OC(C)C)cc4oc(=O)c3n3ccc4c(OC(C)C)c(OC)c(OC)cc4c23)ccc1OC(C)C [Compound 27] | LoVo | 270 nM
COc1cc(-c2c3n(c4c(=O)oc5cc(OC(=O)[C@H](N)C(C)C)c(OC)cc5c24)CCc2cc(OC(=O)[C@H](N)C(C)C)c(OC)cc2-3)ccc1OC(=O)[C@H](N)C(C)C [Compound 32] | LoVo | 392 nM
COc1cc(-c2c3c4cc(OC)c(O)cc4oc(=O)c3n3ccc4cc(O)c(OC)cc4c23)ccc1O [Compound 3, lamellarin D, reference compound] | LoVo | 398 nM
COc1cc(-c2c3c4cc(OC)c(OC(=O)[C@@H](N)CC(C)C)cc4oc(=O)c3n3ccc4cc(OC(=O)[C@@H](N)CC(C)C)c(OC)cc4c23)ccc1OC(=O)[C@@H](N)CC(C)C [Compound 39] | LoVo | 321 nM
COc1cc2c(cc1OC)-c1c(-c3ccc(OC(=O)CCc4ccccc4)c(OC)c3)c3c4cc(OC)c(OC(=O)CCc5ccccc5)cc4oc(=O)c3n1CC2 [Compound 93] | LoVo | 12800 nM
COc1cc2c(cc1OC)-c1c(-c3ccc(OC(=O)CCCC[C@@H]4SC[C@@H]5NC(=O)N[C@@H]54)c(OC)c3)c3c4cc(OC)c(OC(=O)CCCC[C@@H]5SC[C@@H]6NC(=O)N[C@@H]65)cc4oc(=O)c3n1CC2 [Compound 47] | LoVo | 3970 nM
COc1cc2ccn3c(c(-c4ccc(OC(=O)[C@@H](N)C(C)C)c(OC)c4)c4c5cc(OC)c(OC(=O)[C@@H](N)C(C)C)cc5oc(=O)c43)c2cc1OC [Compound 19] | LoVo | 722 nM
COc1cc(-c2c3n(c4c(=O)oc5cc(OC(=O)c6cc(F)c(F)c(F)c6F)c(OC)cc5c24)CCc2c-3cc(OC)c(OC)c2OC(=O)c2cc(F)c(F)c(F)c2F)ccc1OC(=O)c1cc(F)c(F)c(F)c1F [Compound 99] | LoVo | 9440 nM
COc1cc(-c2c3n(c4c(=O)oc5cc(O)c(OC)cc5c24)CCc2c-3cc(OC)c(OC)c2O)ccc1O [Compound 1] | LoVo | 11800 nM
COc1cc2c(cc1OC)-c1c(-c3ccc(OC(=O)[C@H](Cc4ccccc4)NC(=O)OC(C)(C)C)c(OC)c3)c3c4cc(OC)c(OC(=O)[C@H](Cc5ccccc5)NC(=O)OC(C)(C)C)cc4oc(=O)c3n1CC2 [Compound 84] | LoVo | 4480 nM
COc1cc(-c2c3c4cc(OC)c(OC(=O)[C@H](N)C(C)C)cc4oc(=O)c3n3ccc4cc(OC(=O)[C@H](N)C(C)C)c(OC)cc4c23)ccc1OC(=O)[C@H](N)C(C)C [Compound 17] | LoVo | 216 nM
